- ASSAY TARGET: T1, RSV F ectodomain stabilized in the postfusion conformation (F ΔFP), subtype B (Respiratory syncytial virus subtype B, UniProt P13843 26-109; P13843 147-524)
- T1 construct: extracellular domain; trimer; also called Postfusion subtype B
- ASSAY METHOD TEXT: BLI, IgG on AHQ sensors, 100 nM antigen
Please respond with reported Kd for every item in the list.
Answers are plain numbers, in nM.

Before answering, review these 2 worked examples.
# BINDER, MEASUREMENT TYPE, UNIT SPEC, VALUE OBSERVED
data = [
    ("ADI-14551 (antibody, V domains shown, IgG) VH: QVQLQESGPGLVKPSETLSLTCSVSGGSIKRGAYFWTWIRQRPGKGLEWIGSMHDSGDYYNPSLKTRVTILGDTTKNHFTLKLTSVTVADTALYYCARGRGYSYGWRFFDNWGQGTLVTVSS VL: NFMLTQPPSVSVSPGHSTRITCSGDALPKQYAYWYQQKPGQAPVLIMSKDSERPSGIPERFTGSSSGTTVTLTISGVQAEDEADYYCQSGDTSGSYVVFGGGTKVTVL", "Kd", "nM", 0.195),
    ("ADI-14535 (antibody, V domains shown, IgG; also called Antibody Number 95) VH: QVQLQQWGPGLVKPSQTLSLTCSVSGASVKIGSNFWTWIRQRPGKGLEWIGAIHDTGTTYYNPSLEPQVIISTDTSQNQFSLRLTSVTAADTAVYYCARGRGYTYGWRYFDYWGQGTLVTVSS VL: SYVLTQPPSVSVSPGQTARITCSGDALPKQYAFWYQHKAGQAPVLVIKKDTERPSGIPERFSGSISGTTATLIISGVQAEDEADYYCQSSDSSGNVVLFGGGTQLTVL", "Kd", "nM", 0.238),
]

# input Request the reported Kd associated with ADI-14527 (antibody, V domains shown, IgG; also called Antibody Number 87) VH: QVQLVQSGAELKRPGSSVKVSCKASGVYLTSVAVNWVRQVPGHGFEWMGGILTGFGKVRHAQAFENRATLTADASTNTAYLELSGLQAEDTAAYYCAIIDPQDCTAASCFWVNWLDPWGQGTLVTVSS VL: EIVLTQSPGTLTVSPGERATLSCRASQSVLSSHLAWYQQKPGQAPRLLIYAASSRATDVPDRFSGSGSGTDFTLTISRLEPQDFAVYYCQQYGSSPITFGQGTRLEIK
# output 0.645
